# credit: patent US8592161B2

Listing: median FC (fold change in EC50 as compared to wild type) of selected compounds
- Tested on: HIV-1/LAI strain selected with Comp 1 (100 nM, 195 days), protease S37N R41S K70E
- Measurement notes: In vitro antiviral activity in acutely infected MT4 cells, selected strain
- Format: cell-based
- Test conditions: Table 2, strain S37N R41S K70E (Comp 1 100 nM, 195 days)
The response must contain the number and no unit.

As a guide, the following entries are already answered.
Cc1c(O)cccc1C(=O)N[C@@H](CSc1ccccc1)[C@H](O)CN1C[C@H]2CCCC[C@H]2C[C@H]1C(=O)NC(C)(C)C: 0.3
CC(C)CN(C[C@@H](O)[C@H](Cc1ccccc1)NC(=O)O[C@H]1CCOC1)S(=O)(=O)c1ccc(N)cc1: 1
CC(C)(C)NC(=O)[C@@H]1C[C@@H]2CCCC[C@@H]2CN1C[C@@H](O)[C@H](Cc1ccccc1)NC(=O)[C@H](CC(N)=O)NC(=O)c1ccc2ccccc2n1: 0.2
CC(C)CN(C[C@@H](O)[C@H](Cc1ccccc1)NC(=O)O[C@H]1CO[C@H]2OCC[C@H]21)S(=O)(=O)c1ccc(N)cc1: 2

Switching to the query record.
Need median FC (fold change in EC50 as compared to wild type) of CC(C)(C)NC(=O)[C@@H]1CN(Cc2cccnc2)CCN1C[C@@H](O)C[C@@H](Cc1ccccc1)C(=O)N[C@H]1c2ccccc2C[C@H]1O , thanks.
1

###

- System: HIV-1/LAI
- Measurement notes: In vitro antiviral activity in acutely infected MT4 cells, wild type
- Format: cell-based
- Test conditions: Human immunodeficiency virus 1, MT4, Table 1, wild-type HIV/LAI, read-out: median EC50
Attribute measured: EC50 (nM)
Give the number; nM is assumed, so skip it.

CC(C)(C)NC(=O)[C@@H]1CN(Cc2cccnc2)CCN1C[C@@H](O)C[C@@H](Cc1ccccc1)C(=O)N[C@H]1c2ccccc2C[C@H]1O: 28
CC(C)CN(C[C@@H](O)[C@H](Cc1ccccc1)NC(=O)O[C@H]1CO[C@H]2OCC[C@H]21)S(=O)(=O)c1ccc(N)cc1: 3.2
Cc1c(O)cccc1C(=O)N[C@@H](CSc1ccccc1)[C@H](O)CN1C[C@H]2CCCC[C@H]2C[C@H]1C(=O)NC(C)(C)C: 30

Switching to the query record.
Need EC50 of CC(C)CN(C[C@@H](O)[C@H](Cc1ccccc1)NC(=O)O[C@H]1CCOC1)S(=O)(=O)c1ccc(N)cc1 , thanks.
36

###

- Tested on: HIV-1/LAI strain selected with NFV (1000 nM, 35 days), protease D30N M46I
- Measurement notes: In vitro antiviral activity in acutely infected MT4 cells, selected strain
- Type: cell-based
- Test conditions: Human immunodeficiency virus 1, Table 5, strain D30N M46I (NFV 1000 nM, 35 days), read-out: median EC50
Attribute measured: EC50 (nM)
Give the number; nM is assumed, so skip it.

Need EC50 of Cc1cccc(C)c1OCC(=O)N[C@@H](Cc1ccccc1)[C@@H](O)C[C@H](Cc1ccccc1)NC(=O)[C@H](C(C)C)N1CCCNC1=O [Lopinavir] , thanks.
7.7

Need EC50 of CC(C)(C)NC(=O)[C@@H]1CN(Cc2cccnc2)CCN1C[C@@H](O)C[C@@H](Cc1ccccc1)C(=O)N[C@H]1c2ccccc2C[C@H]1O [Indinavir] , thanks.
7.9

Need EC50 of Cc1c(O)cccc1C(=O)N[C@@H](CSc1ccccc1)[C@H](O)CN1C[C@H]2CCCC[C@H]2C[C@H]1C(=O)NC(C)(C)C [Nelfinavir] , thanks.
330

Need EC50 of CC(C)(C)NC(=O)[C@@H]1C[C@@H]2CCCC[C@@H]2CN1C[C@@H](O)[C@H](Cc1ccccc1)NC(=O)[C@H](CC(N)=O)NC(=O)c1ccc2ccccc2n1 [Saquinavir] , thanks.
1.8

Need EC50 of CC(C)CN(C[C@@H](O)[C@H](Cc1ccccc1)NC(=O)O[C@H]1CCOC1)S(=O)(=O)c1ccc(N)cc1 [Amprenavir] , thanks.
28

Need EC50 of CC(C)c1nc(CN(C)C(=O)N[C@H](C(=O)N[C@@H](Cc2ccccc2)C[C@H](O)[C@H](Cc2ccccc2)NC(=O)OCc2cncs2)C(C)C)cs1 [Ritonavir] , thanks.
19

###

- Test system: HIV-1/LAI strain selected with Compound 1 (100 nM, 188 days), protease R41T K70E
- Measurement notes: In vitro antiviral activity in acutely infected MT4 cells, selected strain
- Format: cell-based
- Test conditions: Table 1, strain R41T K70E (Compound 1 100 nM, 188 days)
Listing: median FC (fold change in EC50 as compared to wild type) of selected compounds
The response must contain the number and no unit.

As a guide, the following entries are already answered.
Cc1c(O)cccc1C(=O)N[C@@H](CSc1ccccc1)[C@H](O)CN1C[C@H]2CCCC[C@H]2C[C@H]1C(=O)NC(C)(C)C [Nelfinavir]: 1
CC(C)CN(C[C@@H](O)[C@H](Cc1ccccc1)NC(=O)O[C@H]1CO[C@H]2OCC[C@H]21)S(=O)(=O)c1ccc(N)cc1 [Compound 1]: 10
CC(C)(C)NC(=O)[C@@H]1C[C@@H]2CCCC[C@@H]2CN1C[C@@H](O)[C@H](Cc1ccccc1)NC(=O)[C@H](CC(N)=O)NC(=O)c1ccc2ccccc2n1 [Saquinavir]: 20
CC(C)CN(C[C@@H](O)[C@H](Cc1ccccc1)NC(=O)O[C@H]1CCOC1)S(=O)(=O)c1ccc(N)cc1 [Amprenavir]: 1

Switching to the query record.
Need median FC (fold change in EC50 as compared to wild type) of CC(C)(C)NC(=O)[C@@H]1CN(Cc2cccnc2)CCN1C[C@@H](O)C[C@@H](Cc1ccccc1)C(=O)N[C@H]1c2ccccc2C[C@H]1O [Indinavir] , thanks.
5

###

- Test system: HIV-1/LAI strain selected with Comp 1 (200 nM, 328 days), protease S37N R41S K70E
- Measurement notes: In vitro antiviral activity in acutely infected MT4 cells, selected strain
- Assay type: cell-based
- Test conditions: Human immunodeficiency virus 1, Table 2, strain S37N R41S K70E (Comp 1 200 nM, 328 days), read-out: median EC50
pEC50: −log10 of the molar value.
# cutoff 9 applies to pEC50; >= gives criterion met, < gives criterion not met

CC(C)CN(C[C@@H](O)[C@H](Cc1ccccc1)NC(=O)O[C@H]1CO[C@H]2OCC[C@H]21)S(=O)(=O)c1ccc(N)cc1: criterion met
CC(C)c1nc(CN(C)C(=O)N[C@H](C(=O)N[C@@H](Cc2ccccc2)C[C@H](O)[C@H](Cc2ccccc2)NC(=O)OCc2cncs2)C(C)C)cs1: criterion not met
CC(C)(C)NC(=O)[C@@H]1C[C@@H]2CCCC[C@@H]2CN1C[C@@H](O)[C@H](Cc1ccccc1)NC(=O)[C@H](CC(N)=O)NC(=O)c1ccc2ccccc2n1: criterion not met

Please tell me: is the compound Cc1c(O)cccc1C(=O)N[C@@H](CSc1ccccc1)[C@H](O)CN1C[C@H]2CCCC[C@H]2C[C@H]1C(=O)NC(C)(C)C at or over 9 in terms of pEC50?
criterion not met

Please tell me: is the compound CC(C)(C)NC(=O)[C@@H]1CN(Cc2cccnc2)CCN1C[C@@H](O)C[C@@H](Cc1ccccc1)C(=O)N[C@H]1c2ccccc2C[C@H]1O at or over 9 in terms of pEC50?
criterion not met

Please tell me: is the compound CC(C)CN(C[C@@H](O)[C@H](Cc1ccccc1)NC(=O)O[C@H]1CCOC1)S(=O)(=O)c1ccc(N)cc1 at or over 9 in terms of pEC50?
criterion not met

###

- System: HIV-1/LAI strain selected with Comp 1 (200 nM, 328 days), protease S37N R41S K70E
- Measurement notes: In vitro antiviral activity in acutely infected MT4 cells, selected strain
- Assay type: cell-based
- Test conditions: Table 2, strain S37N R41S K70E (Comp 1 200 nM, 328 days)
Attribute measured: median FC (fold change in EC50 as compared to wild type)
The response must contain the number and no unit.

As a guide, the following entries are already answered.
CC(C)CN(C[C@@H](O)[C@H](Cc1ccccc1)NC(=O)O[C@H]1CO[C@H]2OCC[C@H]21)S(=O)(=O)c1ccc(N)cc1: 0.2
CC(C)CN(C[C@@H](O)[C@H](Cc1ccccc1)NC(=O)O[C@H]1CCOC1)S(=O)(=O)c1ccc(N)cc1: 1
CC(C)(C)NC(=O)[C@@H]1C[C@@H]2CCCC[C@@H]2CN1C[C@@H](O)[C@H](Cc1ccccc1)NC(=O)[C@H](CC(N)=O)NC(=O)c1ccc2ccccc2n1: 1
Cc1c(O)cccc1C(=O)N[C@@H](CSc1ccccc1)[C@H](O)CN1C[C@H]2CCCC[C@H]2C[C@H]1C(=O)NC(C)(C)C: 0.1

Switching to the query record.
Need median FC (fold change in EC50 as compared to wild type) of CC(C)(C)NC(=O)[C@@H]1CN(Cc2cccnc2)CCN1C[C@@H](O)C[C@@H](Cc1ccccc1)C(=O)N[C@H]1c2ccccc2C[C@H]1O , thanks.
0.5
